Tested on: Staphylococcus aureus SAU0065 (MRSA)
Experiment: Broad spectrum MIC, Table 17/18 column H
Assay type: cell-based
Conditions: condition H of Table 17, in µg/mL
Description: The antimicrobial lipopeptide derivatives described herein were tested for antimicrobial activity against Gram-positive bacteria as follows. The minimum inhibitory concentrations (MIC) of the antimicrobial lipopeptide derivatives of the invention were determined using NCCLS guidelines M7-A6 (2003) with a slight modification in that doubling serial dilutions were used to dilute the test compounds. […] MICs were determined after incubating the plates at about 37° C. for 24 hours. […]
Exercise: for every item that follows, state its recorded MIC, media condition H.

Recorded MIC, media condition H for CCCCCCCCCCCCCCC(=O)NC(CC(=O)O)C(=O)NC1C(=O)N2CCCCC2C(=O)NC(C(C)C(=O)O)C(=O)NC(CC(=O)O)C(=O)NCC(=O)NC(CC(=O)O)C(=O)NCC(=O)NC(C(C)NC(=O)CNC(=O)[C@@H](N)CCCCN)C(=O)NC(C(C)C)C(=O)N2CCCC2C(=O)NC1C (stereo partly drawn) with Staphylococcus aureus SAU0065 (MRSA), please?
1-4

Recorded MIC, media condition H for CCCCCCCCCCCCCCC(=O)NC(CC(=O)O)C(=O)NC1C(=O)N2CCCCC2C(=O)NC(C(C)C(=O)O)C(=O)NC(CC(=O)O)C(=O)NCC(=O)NC(CC(=O)O)C(=O)NCC(=O)NC(C(C)NC(=O)CN(C)C(=O)[C@@H](N)CCCCN)C(=O)NC(C(C)C)C(=O)N2CCCC2C(=O)NC1C (stereo partly drawn) with Staphylococcus aureus SAU0065 (MRSA), please?
1-2

Recorded MIC, media condition H for CCCCCCCCCCCCCCCC(=O)NC(CC(=O)O)C(=O)NC1C(=O)N2CCCCC2C(=O)NC(C(C)C(=O)O)C(=O)NC(CC(=O)O)C(=O)NCC(=O)NC(CC(=O)O)C(=O)NCC(=O)NC(C(C)N)C(=O)NC(C(C)C)C(=O)N2CCCC2C(=O)NC1C (stereo not drawn) with Staphylococcus aureus SAU0065 (MRSA), please?
2-4

====

Tested on: Staphylococcus aureus (MSSA)
Conditions: 24 h
Protocol: (“Approved Standard M7-A3”). The antimicrobial lipopeptide derivatives described herein were tested for antimicrobial activity against Gram-positive bacteria as follows. The minimum inhibitory concentrations (MIC) of the antimicrobial lipopeptide derivatives of the invention were determined using NCCLS guidelines M7-A6 (2003) with a slight modification in that doubling serial dilutions were used to dilute the test compounds. The broth phase microdilution method was used. […]
Starred links: 1 amine or outer side, 2 acyl side, 3 side chain; linkers in the order of their positions; H or OH if unused. Positions of bridges follow the written chain, without caps; N, C: chain ends. Non-standard residues stand in square brackets, D forms with d. Residues, ends and D or L forms follow the SMILES beside them. ξ: configuration not given here. *: point of attachment. Hexadecanesulfonyl = CCCCCCCCCCCCCCCCS(=O)(=O)*; ξAbu(βξ-NH2) = CC(N[*:3])C(N[*:1])C(=O)[*:2]; ξAsp(βξ-Me) = CC(C(=O)O)C(N)C(=O)O; ξAbu(3ξ-NH2) = CC(N)C(N)C(=O)O; X9 = O=C(c1ccccc1Cc1ccccc1)*; Pip = O=C(O)[CH]1CCCCN1; ξD = NC(CC(=O)O)C(=O)O; ξPip = O=C(O)C1CCCCN1; ξV = CC(C)C(N)C(=O)O; ξP = O=C(O)C1CCCN1
observed-property: MIC

Consider the molecule CC(C)C1NC(=O)C(C(C)N)NC(=O)CNC(=O)C(CC(=O)O)NC(=O)CNC(=O)C(CC(=O)O)NC(=O)C(C(C)C(=O)O)NC(=O)C2CCCCN2C(=O)C(NC(=O)C(CC(=O)O)NC(=O)c2ccccc2Cc2ccccc2)C(C)NC(=O)C2CCCN2C1=O (stereo not drawn) [Compound 323, (2-(Phenylmethyl)-Benzoyl)-Amphomycin] (X9-D[ξAbu(βξ-NH2)][Pip][ξAsp(βξ-Me)]DGDG[ξAbu(3ξ-NH2)]VP; lactam 2-C; configuration not given here) and give its measured MIC.
>64 µg/mL

Consider the molecule CCCCCCCCCCCCCCC(=O)NC(CC(=O)O)C(=O)NC1C(=O)N2CCCCC2C(=O)NC(C(C)C(=O)O)C(=O)NC(CC(=O)O)C(=O)NCC(=O)NC(CC(=O)O)C(=O)NCC(=O)NC(C(C)NC(=O)[C@@H](N)CC#N)C(=O)NC(C(C)C)C(=O)N2CCCC2C(=O)NC1C (stereo partly drawn) and give its measured MIC.
8 to 16 µg/mL

Consider the molecule CCCCCCCCCCCCCCCCS(=O)(=O)N[C@@H](Cc1ccccc1)C(=O)NC(CC(=O)O)C(=O)NC1C(=O)N2CCCCC2C(=O)NC(C(C)C(=O)O)C(=O)NC(CC(=O)O)C(=O)NCC(=O)NC(CC(=O)O)C(=O)NCC(=O)NC(C(C)N)C(=O)NC(C(C)C)C(=O)N2CCCC2C(=O)NC1C (stereo partly drawn) [Compound 270, CH3—(CH2)15—SO2-Phe-Amphomycin] (Hexadecanesulfonyl-F[ξD][ξAbu(βξ-NH2)][ξPip][ξAsp(βξ-Me)][ξD]G[ξD]G[ξAbu(3ξ-NH2)][ξV][ξP]; lactam 3-C) and give its measured MIC.
16 to 32 µg/mL

Sourced from patent US7868135B2
